Cited source: ChEMBL document CHEMBL1255303

# Lookup of reported MIC keyed by entry
system: Candida albicans; experiment: Antifungal activity against Candida albicans ATCC 10261 after 48 hrs by broth microdilution method; format: functional; settings: ATCC 10261, 48 h
# number only, unit µg/mL dropped from output

I have this compound here, OC(Cn1cncn1)(Cn1cncn1)c1ccc(F)cc1F , and I need its recorded MIC.
0.125

Quick check: MIC of C[C@@H](c1ncncc1F)[C@](O)(Cn1cncn1)c1ccc(F)cc1F ?
0.0039

Query: MIC; subject: C[C@@H]1[C@H](O)[C@@H](C)/C=C/C=C/C=C/C=C/C=C/C=C/C=C/[C@H](O[C@@H]2O[C@H](C)[C@@H](O)[C@H](N)[C@@H]2O)C[C@@H]2O[C@](O)(C[C@@H](O)C[C@@H](O)[C@H](O)CC[C@@H](O)C[C@@H](O)CC(=O)O[C@H]1C)C[C@H](O)[C@H]2C(=O)O
1

###

test system: Candida tropicalis; assay: Antifungal activity against Candida tropicalis IFO 1400 after 48 hrs by broth microdilution method; format: functional; conditions: IFO 1400, 48 h
Each entry below carries its reported MFC.
Enter your answer as a number in µg/mL; do not include the unit.

COMPOUND	MFC (µg/mL)
C[C@@H]1[C@H](O)[C@@H](C)/C=C/C=C/C=C/C=C/C=C/C=C/C=C/[C@H](O[C@@H]2O[C@H](C)[C@@H](O)[C@H](N)[C@@H]2O)C[C@@H]2O[C@](O)(C[C@@H](O)C[C@@H](O)[C@H](O)CC[C@@H](O)C[C@@H](O)CC(=O)O[C@H]1C)C[C@H](O)[C@H]2C(=O)O [AMPHOTERICIN B]	1

Now for another entry.
I'm curious: which MFC was measured for N=C(N)c1ccc(OCCCC2CCN(CCCOc3ccc(C(=N)N)cc3)CC2)cc1 tested on Candida tropicalis?
4

###

test system: Nakaseomyces glabratus; experiment: Antifungal activity against Candida glabrata clinical isolates after 48 hrs by broth microdilution method; type: functional
Starred links: 1 amine or outer side, 2 acyl side, 3 side chain; linkers in the order of their positions; H or OH if unused. Positions of bridges follow the written chain, without caps; N, C: chain ends. Non-standard residues stand in square brackets, D forms with d. Residues, ends and D or L forms follow the SMILES beside them. *: point of attachment. hTyr(3S-OH,4S-OH,3'-OSO3H) = N[C@H](C(=O)O)[C@H](O)[C@@H](O)c1ccc(O)c(OS(=O)(=O)O)c1; Orn(4R-OH,5R-OH) = O=C([C@H](C[C@@H](O)[C@@H](O)N[*:3])N[*:1])[*:2]; Pro(3S-OH,4S-Me) = C[C@H]1CN[C@H](C(=O)O)[C@H]1O; X1 = CCCCCOc1ccc(-c2cc(-c3ccc(C(=O)*)cc3)no2)cc1; Gln(3R-OH) = NC(=O)C[C@@H](O)[C@H](N)C(=O)O; Hyp = O=C(O)[C@@H]1C[C@@H](O)CN1
ENDPOINT NAME: MIC90 (µg/mL)
Your answer is read as µg/mL, so omit the unit and give the number.

# example entries with known answers
COMPOUND	SYSTEM NAME	READOUT UNIT	MIC90
N=C(N)c1ccc(OCCCC2CCN(CCCOc3ccc(C(=N)N)cc3)CC2)cc1	Nakaseomyces glabratus	µg/mL	0.0078
CCCCCOc1ccc(-c2cc(-c3ccc(C(=O)N[C@H]4C[C@@H](O)[C@@H](O)NC(=O)[C@@H]5[C@@H](O)[C@@H](C)CN5C(=O)[C@H]([C@H](O)CC(N)=O)NC(=O)[C@H]([C@H](O)[C@@H](O)c5ccc(O)c(OS(=O)(=O)O)c5)NC(=O)[C@@H]5C[C@@H](O)CN5C(=O)[C@H]([C@@H](C)O)NC4=O)cc3)no2)cc1 [MICAFUNGIN] (X1-[Orn(4R-OH,5R-OH)]T[Hyp][hTyr(3S-OH,4S-OH,3'-OSO3H)][Gln(3R-OH)][Pro(3S-OH,4S-Me)]; lactam 1-C)	Nakaseomyces glabratus	µg/mL	0.0625

Fill in: MIC90 of C[C@@H]1[C@H](O)[C@@H](C)/C=C/C=C/C=C/C=C/C=C/C=C/C=C/[C@H](O[C@@H]2O[C@H](C)[C@@H](O)[C@H](N)[C@@H]2O)C[C@@H]2O[C@](O)(C[C@@H](O)C[C@@H](O)[C@H](O)CC[C@@H](O)C[C@@H](O)CC(=O)O[C@H]1C)C[C@H](O)[C@H]2C(=O)O is ___
2

Need MIC90, item C[C@@H](c1ncncc1F)[C@](O)(Cn1cncn1)c1ccc(F)cc1F
0.5

###

tested on: Cryptococcus neoformans; assay: Antifungal activity against Cryptococcus neoformans ATCC 90113 after 72 hrs by broth microdilution method; type: functional; settings: ATCC 90113, 72 h
Each entry below carries its reported MFC.
Answer format: numeric, µg/mL implied, no suffix.

STRUCTURE NOTATION	READOUT UNIT	MEASURED VALUE
N=C(N)c1ccc(OCCCC2CCN(CCCOc3ccc(C(=N)N)cc3)CC2)cc1	µg/mL	0.0625

Consider now this further molecule.
// query MFC value for entry C[C@@H]1[C@H](O)[C@@H](C)/C=C/C=C/C=C/C=C/C=C/C=C/C=C/[C@H](O[C@@H]2O[C@H](C)[C@@H](O)[C@H](N)[C@@H]2O)C[C@@H]2O[C@](O)(C[C@@H](O)C[C@@H](O)[C@H](O)CC[C@@H](O)C[C@@H](O)CC(=O)O[C@H]1C)C[C@H](O)[C@H]2C(=O)O
2

###

We begin with a simple list: items and their reported MIC.
tested on: Cryptococcus neoformans; assay: Antifungal activity against Cryptococcus neoformans ATCC 90113 after 72 hrs by broth microdilution method; type: functional; conditions: ATCC 90113, 72 h
Starred links: 1 amine or outer side, 2 acyl side, 3 side chain; linkers in the order of their positions; H or OH if unused. Positions of bridges follow the written chain, without caps; N, C: chain ends. Non-standard residues stand in square brackets, D forms with d. Residues, ends and D or L forms follow the SMILES beside them. *: point of attachment. hTyr(3S-OH,4S-OH,3'-OSO3H) = N[C@H](C(=O)O)[C@H](O)[C@@H](O)c1ccc(O)c(OS(=O)(=O)O)c1; Orn(4R-OH,5R-OH) = O=C([C@H](C[C@@H](O)[C@@H](O)N[*:3])N[*:1])[*:2]; Pro(3S-OH,4S-Me) = C[C@H]1CN[C@H](C(=O)O)[C@H]1O; X1 = CCCCCOc1ccc(-c2cc(-c3ccc(C(=O)*)cc3)no2)cc1; Gln(3R-OH) = NC(=O)C[C@@H](O)[C@H](N)C(=O)O; Hyp = O=C(O)[C@@H]1C[C@@H](O)CN1

COMPOUND	SYSTEM NAME	MEASURED VALUE
CCCCCOc1ccc(-c2cc(-c3ccc(C(=O)N[C@H]4C[C@@H](O)[C@@H](O)NC(=O)[C@@H]5[C@@H](O)[C@@H](C)CN5C(=O)[C@H]([C@H](O)CC(N)=O)NC(=O)[C@H]([C@H](O)[C@@H](O)c5ccc(O)c(OS(=O)(=O)O)c5)NC(=O)[C@@H]5C[C@@H](O)CN5C(=O)[C@H]([C@@H](C)O)NC4=O)cc3)no2)cc1 [MICAFUNGIN] (X1-[Orn(4R-OH,5R-OH)]T[Hyp][hTyr(3S-OH,4S-OH,3'-OSO3H)][Gln(3R-OH)][Pro(3S-OH,4S-Me)]; lactam 1-C)	Cryptococcus neoformans	> 64 µg/mL
N=C(N)c1ccc(OCCCC2CCN(CCCOc3ccc(C(=N)N)cc3)CC2)cc1	Cryptococcus neoformans	0.0078 µg/mL
OC(Cn1cncn1)(Cn1cncn1)c1ccc(F)cc1F	Cryptococcus neoformans	4 µg/mL
C[C@@H](c1ncncc1F)[C@](O)(Cn1cncn1)c1ccc(F)cc1F	Cryptococcus neoformans	0.0625 µg/mL

Next:
Value lookup for MIC; key = C[C@@H]1[C@H](O)[C@@H](C)/C=C/C=C/C=C/C=C/C=C/C=C/C=C/[C@H](O[C@@H]2O[C@H](C)[C@@H](O)[C@H](N)[C@@H]2O)C[C@@H]2O[C@](O)(C[C@@H](O)C[C@@H](O)[C@H](O)CC[C@@H](O)C[C@@H](O)CC(=O)O[C@H]1C)C[C@H](O)[C@H]2C(=O)O
2 µg/mL

###

system: Candida albicans; assay: Antifungal activity against Candida albicans ATCC 10261 after 48 hrs by broth microdilution method; format: functional; details: ATCC 10261, 48 h
In this section, each of the compounds is paired with its reported MFC.

As a guide, the following entries are already answered.
>>> df
                         structure_notation  measured_value
0  C[C@@H](c1ncncc1F)[C@](O)(Cn1cncn1)c1ccc(F)cc1F      > 64 µg/mL
1        OC(Cn1cncn1)(Cn1cncn1)c1ccc(F)cc1F      > 64 µg/mL

Attention now shifts to the item below.
Param readout = MFC; param system = Candida albicans; param query = N=C(N)c1ccc(OCCCC2CCN(CCCOc3ccc(C(=N)N)cc3)CC2)cc1 ; response: value
> 64 µg/mL
